Cited source: patent US20220033397A1

Heads up, these molecules all have IC50 values measured for Full-length USP19 (Homo sapiens).

{"Molecule": "C[C@H](CC(F)(F)F)C(=O)N1CCC(O)(CN2CCN(c3ccccn3)CC2=O)C2(CCCC2)C1 (some centres unmarked)", "Tested On": "Full-length USP19 (Homo sapiens)", "Endpoint Value": "< 0.5 µM"}
{"Molecule": "O=C(NC(C(F)(F)F)C(F)(F)F)N1CC[C@@](O)(Cn2cnc(-c3ccccc3)cc2=O)C2(CCCC2)C1", "Tested On": "Full-length USP19 (Homo sapiens)", "Endpoint Value": "0.5 to 5 µM"}
{"Molecule": "C[C@H](CC(F)(F)F)C(=O)N1CCC(O)(Cn2ccc3nc(N4CCN(C)CC4)ncc3c2=O)C2(CCCC2)C1 (some centres unmarked)", "Tested On": "Full-length USP19 (Homo sapiens)", "Endpoint Value": "0.5 to 5 µM"}

Req: Please look up its IC50: O=C(N1CCC(O)(Cn2cnc3ccc(F)cc3c2=O)C2(CCCC2)C1)N1CCOC[C@H]1c1ccccc1 (some centres unmarked)
Resp: < 0.5 µM

Req: Please look up its IC50: `O=C(N1CC[C@@](O)(Cn2cnc(C3CC3)cc2=O)C2(CCCC2)C1)N1CCNC[C@H]1c1ccccc1`
Resp: < 0.5 µM

Req: Please look up its IC50: CS(=N)(=O)c1cn(CC2(O)CCN(C(=O)N3CCOC[C@H]3c3ccccc3)CC23CCCC3)c(=O)cc1-c1ccccc1 (some centres unmarked)
Resp: < 0.5 µM

Req: Please look up its IC50: `Cc1cc(=O)n(C[C@]2(O)CCN(C(=O)N3CCNC[C@H]3c3ccccc3)CC23CCCC3)cn1`
Resp: < 0.5 µM

Req: Please look up its IC50: O=C(N1CCC(O)(Cn2cnc(-c3ccccc3)cc2=O)C2(CCCCC2)C1)N1CCNC[C@H]1c1ccccc1 (some centres unmarked)
Resp: < 0.5 µM

Req: Please look up its IC50: `O=C(N1CC[C@@](O)(Cn2cnc(-c3ccc4c(c3)CCO4)cc2=O)C2(CCCC2)C1)N1CCNC[C@H]1c1ccccc1`
Resp: < 0.5 µM

Req: Please look up its IC50: `O=C(N1CCC(O)(Cn2cnc(-c3ccccc3)cc2=O)CC1)N1CCOC[C@H]1c1ccccc1`
Resp: 0.5 to 5 µM

====

Tested On: Full-length USP19 (Homo sapiens)
Sequence (O94966 1-1318): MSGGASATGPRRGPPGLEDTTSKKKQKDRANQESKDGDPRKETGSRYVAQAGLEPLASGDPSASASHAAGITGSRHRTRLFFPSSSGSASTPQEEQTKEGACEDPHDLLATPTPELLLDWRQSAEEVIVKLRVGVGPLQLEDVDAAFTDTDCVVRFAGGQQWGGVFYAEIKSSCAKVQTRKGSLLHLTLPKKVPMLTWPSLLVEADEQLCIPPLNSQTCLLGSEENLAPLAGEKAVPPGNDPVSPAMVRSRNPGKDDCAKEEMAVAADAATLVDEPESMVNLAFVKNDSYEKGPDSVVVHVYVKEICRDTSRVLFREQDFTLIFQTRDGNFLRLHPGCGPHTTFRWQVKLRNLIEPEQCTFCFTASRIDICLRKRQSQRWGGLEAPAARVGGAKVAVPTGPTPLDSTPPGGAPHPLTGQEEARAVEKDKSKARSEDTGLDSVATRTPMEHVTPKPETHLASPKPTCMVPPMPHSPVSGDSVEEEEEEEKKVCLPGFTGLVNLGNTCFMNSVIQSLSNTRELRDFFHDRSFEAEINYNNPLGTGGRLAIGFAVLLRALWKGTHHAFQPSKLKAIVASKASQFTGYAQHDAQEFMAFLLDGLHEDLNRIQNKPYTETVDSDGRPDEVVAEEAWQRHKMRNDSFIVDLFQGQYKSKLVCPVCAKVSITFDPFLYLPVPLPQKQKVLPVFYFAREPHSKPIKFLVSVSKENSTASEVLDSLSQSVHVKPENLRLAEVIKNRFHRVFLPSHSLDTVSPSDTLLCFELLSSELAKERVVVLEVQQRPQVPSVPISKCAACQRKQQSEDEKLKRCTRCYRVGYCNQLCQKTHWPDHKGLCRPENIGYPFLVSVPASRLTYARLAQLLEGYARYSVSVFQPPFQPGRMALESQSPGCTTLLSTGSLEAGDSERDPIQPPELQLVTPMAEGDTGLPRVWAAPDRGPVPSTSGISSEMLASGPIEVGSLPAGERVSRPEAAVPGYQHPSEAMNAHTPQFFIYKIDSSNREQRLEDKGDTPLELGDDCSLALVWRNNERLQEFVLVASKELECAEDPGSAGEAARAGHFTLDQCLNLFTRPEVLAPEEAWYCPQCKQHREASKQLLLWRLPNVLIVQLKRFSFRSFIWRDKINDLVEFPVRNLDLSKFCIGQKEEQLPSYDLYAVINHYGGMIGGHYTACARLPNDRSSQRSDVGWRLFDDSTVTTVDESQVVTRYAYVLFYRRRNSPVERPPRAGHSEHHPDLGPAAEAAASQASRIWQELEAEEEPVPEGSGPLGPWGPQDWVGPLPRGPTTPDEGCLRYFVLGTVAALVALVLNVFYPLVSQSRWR
pIC50: −log10 of the molar value.
Entries and their measured pIC50 follow.

{"Molecule": "O=C(N1CCC(O)(Cn2cnc(-c3ccccc3)cc2=O)C2(CCCC2)C1)N1CCC[C@H]1c1ncn[nH]1 (some centres unmarked)", "Endpoint Value": "3.60 to 4.30"}
{"Molecule": "O=C(N1CCC(O)(Cn2cnc(-c3ccccc3)cc2=O)C2(CCCC2)C1)N1CCNCC1C1CC1 (centres unmarked)", "Endpoint Value": "4.30 to 5.30"}
{"Molecule": "O=C(N1CC[C@@](O)(Cn2cnc(-c3ccc(Cl)cc3)cc2=O)C2(CCCC2)C1)N1CCNC[C@H]1c1ccccc1", "Endpoint Value": "> 6.30"}
{"Molecule": "CSc1cn(CC2(O)CCN(C(=O)N3CCNC[C@H]3c3ccccc3)CC23CCCC3)c(=O)cc1-c1ccccc1 (some centres unmarked)", "Endpoint Value": "> 6.30"}
{"Molecule": "CC(CC1CCCCC1)C(=O)N1CCC(O)(CN2CC(Cc3ccccc3)CC2=O)CC1 (centres unmarked)", "Endpoint Value": "4.30 to 5.30"}
{"Molecule": "COc1ccc2c(=O)n(CC3(O)CCN(C(=O)[C@H](C)CC4CCCCC4)CC34CCCC4)cnc2c1 (some centres unmarked)", "Endpoint Value": "5.30 to 6.30"}
{"Molecule": "O=C(N1CC[C@@](O)(Cn2cnc(-c3ccccc3)cc2=O)C2(CCCC2)C1)N1CCNCC1c1ccc(C(F)(F)F)cc1 (some centres unmarked)", "Endpoint Value": "> 6.30"}
{"Molecule": "O=C(N1CC[C@@](O)(Cn2cnc(N3CC4CC4C3)cc2=O)C2(CCCC2)C1)N1CCNC[C@H]1c1ccccc1 (some centres unmarked)", "Endpoint Value": "> 6.30"}

Req: Please look up its pIC50: `O=C(NCc1ccco1)N1CC[C@@](O)(Cn2cnc(-c3ccccc3)cc2=O)C2(CCCC2)C1`
Resp: > 6.30

Req: Please look up its pIC50: O=C(N1CC[C@@](O)(Cn2cnc(N3CC4CC4C3)cc2=O)C2(CCCC2)C1)N1CCNC[C@H]1c1cc(F)ccc1F (some centres unmarked)
Resp: > 6.30

Req: Please look up its pIC50: CSc1ncc2c(=O)n(CC3(O)CCN(C(=O)[C@H](C)CC4CCCCC4)CC34CCCC4)cnc2n1 (some centres unmarked)
Resp: > 6.30
